# target-or-test-system: Voltage-gated potassium channel subunit beta-2 (Rattus norvegicus) (UniProt P62483)
# Sequence (P62483 whole entry, looked up): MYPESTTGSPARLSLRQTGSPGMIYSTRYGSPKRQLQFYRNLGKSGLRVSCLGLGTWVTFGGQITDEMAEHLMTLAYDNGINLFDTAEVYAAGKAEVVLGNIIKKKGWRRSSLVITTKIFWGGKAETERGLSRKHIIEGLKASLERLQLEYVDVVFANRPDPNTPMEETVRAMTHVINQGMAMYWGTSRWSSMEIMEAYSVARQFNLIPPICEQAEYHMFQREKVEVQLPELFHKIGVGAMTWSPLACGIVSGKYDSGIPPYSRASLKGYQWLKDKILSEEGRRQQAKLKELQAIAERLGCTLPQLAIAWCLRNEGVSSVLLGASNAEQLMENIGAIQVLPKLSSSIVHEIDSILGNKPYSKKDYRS
# method-notes: enhancers of rat Kvbeta2 NADPH turnover – biochemical, NADPH fluorescence, primary screen (AID 623);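 further: fluorescence intensity change per second fitted from 20 to 320 s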
# settings: Recombinant KvBeta, NADPH fluorescence decrease slope, 10 min; at 10 µM; active compounds read low
# maps each entry to its NADPH fluorescence slope
The answer should be written as a number, with no unit following it.

O=c1[nH]c(=O)n(Cc2ccco2)c(O)c1C=NCCN1CCOCC1 | -2.1e-05
O=c1[nH]c(=O)n(-c2cccc(Cl)c2)c(O)c1C=NCCN1CCCCC1 | -5.4e-05
CN1CCC(N(C)c2ncnc3ccc(Br)cc23)CC1 | -3.4e-05

Read off the recorded NADPH fluorescence slope for `CC(=O)CC(C)(C)n1c[n+](C)nn1`
-5.6e-05

Hello, please tell me recorded NADPH fluorescence slope for this one: COc1ccc(C2SCC(=O)Nc3c2c(=O)[nH]n3C2CCCCC2)cc1 (stereo unspecified)
-0.000101

Answer with the recorded NADPH fluorescence slope of `CC(C)CC12CN3CCN(CC(C3)/C1=N/O)C2` only.
-1.4e-05
